# METHOD_NOTES: Pharmacokinetic test in Beagle dogs
# Format: in vivo
# EXPERIMENTAL_PARAMETERS: dog; male Beagle dogs, PO, 2.5 mg/kg, plasma; read-out: Tmax
PARAMETER: Tmax (h)

| MOLECULE | PARAMETER | REPORTED |
| --- | --- | --- |
| Cc1ccc2c(Nc3cccc(Cl)c3F)nccc2c1NC(=O)c1cccc2c(N)ncnc12 | Tmax | 1 |

###

# METHOD_NOTES: Pharmacokinetic test in Balb/c mice
# Format: in vivo
# EXPERIMENTAL_PARAMETERS: mouse, whole blood (dried blood spots); female Balb/c mice, PO, 10 mg/kg, DBS samples

| COMPOUND | half-life (h) |
| --- | --- |
| Cc1ccc2c(Nc3cccc(Cl)c3F)nccc2c1NC(=O)c1cccc2c(N)ncnc12 [Compound 1] | 8.33 |

###

# METHOD_NOTES: Pharmacokinetic test in Balb/c mice
# Assay type: in vivo
# EXPERIMENTAL_PARAMETERS: mouse, whole blood (dried blood spots); female Balb/c mice, PO, 10 mg/kg, DBS samples; read-out: Tmax

| MOLECULE | Tmax |
| --- | --- |
| Cc1ccc2c(Nc3cccc(Cl)c3F)nccc2c1NC(=O)c1cccc2c(N)ncnc12 | 1.67 h |

###

pIC50: −log10 of the molar value.
pIC50 tested on wild-type BRAF enzyme (Homo sapiens (Human)): recorded values
Sequence (P15056 whole entry): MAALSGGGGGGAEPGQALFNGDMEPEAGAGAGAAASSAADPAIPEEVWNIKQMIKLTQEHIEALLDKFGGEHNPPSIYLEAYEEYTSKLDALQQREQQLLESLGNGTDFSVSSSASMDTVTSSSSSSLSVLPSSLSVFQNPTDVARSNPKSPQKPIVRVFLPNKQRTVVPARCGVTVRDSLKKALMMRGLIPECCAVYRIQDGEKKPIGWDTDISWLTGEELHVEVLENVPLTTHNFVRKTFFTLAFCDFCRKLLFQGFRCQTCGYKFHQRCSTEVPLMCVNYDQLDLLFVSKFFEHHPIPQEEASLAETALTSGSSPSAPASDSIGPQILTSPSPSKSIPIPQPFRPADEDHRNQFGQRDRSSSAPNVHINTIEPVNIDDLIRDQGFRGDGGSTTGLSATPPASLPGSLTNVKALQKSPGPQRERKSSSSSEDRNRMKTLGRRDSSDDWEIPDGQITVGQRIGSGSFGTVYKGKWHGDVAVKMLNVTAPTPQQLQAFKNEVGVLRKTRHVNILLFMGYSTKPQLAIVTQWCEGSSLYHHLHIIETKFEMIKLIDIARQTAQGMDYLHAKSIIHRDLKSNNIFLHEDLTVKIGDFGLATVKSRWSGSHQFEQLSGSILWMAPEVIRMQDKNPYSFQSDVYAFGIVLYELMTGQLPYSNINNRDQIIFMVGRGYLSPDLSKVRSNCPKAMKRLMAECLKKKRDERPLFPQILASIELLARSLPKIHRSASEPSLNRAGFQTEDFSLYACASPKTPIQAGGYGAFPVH

| COMPOUND | pIC50 |
| --- | --- |
| Cc1ccc2c(Nc3cccc(Cl)c3F)nccc2c1NC(=O)c1cccc2c(N)ncnc12 [Compound 1] | 7.73 |
| Cc1ccc2c(Nc3ccc(F)cc3F)nccc2c1NC(=O)c1cc(F)cc2c(N)ncnc12 [Compound 85] | 7.89 |
| Cc1ccc2c(Nc3cccc(Cl)c3F)nccc2c1NC(=O)c1ccc(F)c2c(N)ncnc12 [Compound 93] | 7.87 |
| Cc1ccc2c(Nc3ccc(F)c(Cl)c3)nccc2c1NC(=O)c1cnc2c(N)ncnn12 [Compound 58] | 7.97 |
| Cc1ccc2c(Nc3ccc(F)cc3F)nccc2c1NC(=O)c1cccc2c(N)ncnc12 [Compound 67] | 7.88 |
| Cc1ccc2c(Nc3cccc(C(F)(F)F)c3)nccc2c1NC(=O)c1cnc2c(N)ncnn12 [Compound 43] | 7.68 |
| Cc1ccc2c(Nc3cc(S(C)(=O)=O)ccc3F)nccc2c1NC(=O)c1cccc2c(N)ncnc12 [Compound 89] | 7.69 |
| Cc1ccc2c(Nc3cc(F)c(F)cc3F)nccc2c1NC(=O)c1cccc2c(N)ncnc12 [Compound 90] | 7.58 |
| Cc1ccc2c(Nc3cccc(Cl)c3F)nccc2c1NC(=O)c1cc(F)cc2c(N)ncnc12 [Compound 46] | 7.10 |
| Cc1ccc2c(Nc3c(F)cc(F)cc3F)nccc2c1NC(=O)c1cccc2c(N)ncnc12 [Compound 94] | 7.99 |
| Cc1ccc2c(C(C)Oc3ccccc3)nccc2c1NC(=O)c1csc2c(N)ncnc12 (stereo not shown) [Compound 35] | 6.90 |
| Cc1ccc2c(Nc3cccc(Cl)c3)nccc2c1NC(=O)c1cccc2c(N)ncnc12 [Compound 38] | 7.64 |
| Cc1ccc2c(Nc3ccccc3F)nccc2c1NC(=O)c1cccc2c(N)ncnc12 [Compound 39] | 8.07 |
| Cc1ccc2c(C(=O)c3cccc(C(F)(F)F)c3)nccc2c1NC(=O)c1csc2c(N)ncnc12 [Compound 22] | 7.30 |
| Cc1ccc2c(Nc3cc(Cl)ccc3F)nccc2c1NC(=O)c1cccc2c(N)ncnc12 [Compound 73] | 7.44 |
| Cc1ccc2c(C(O)c3ccc(Cl)cc3F)nccc2c1NC(=O)c1csc2c(N)ncnc12 (stereo not shown) [Compound 28] | 8.03 |
